Attribution: the supplement of paper PMC9170038

Tested on: MS2 coat protein
Assay: apparent KD of MS2 coat protein; higher = weaker reporter binding
Details: Eterna round: R107; input ligand: theophylline 20 uM
reported-endpoint: apparent KD of MS2 coat protein (nM)
The response must be a number in nM with no trailing unit.

Query for MS2 coat protein: what apparent KD of MS2 coat protein does the record show for CGAUAUAAGACGGCCGCCACUAUUAUGUAACAAAAUAAACAUGAGGAUCACCCAUGUACAUGGGAUAGGACCGGGUCCAAUAACG [#21 Same State - Tryptophan B] ? 148

// same read-out, input: GCGGAAUAAUCGGCCGCCACUAUGAGACAGGAAACUGUCACAUGAGGAUCACCCAUGUAUCCUCAUAGGACCGGGAUUAAAACGC [Melting point difference] 109

// same read-out, input: AUGCCUAGUGGAAGGAGCGAGGGUCUUCUCAACAUGAGGAUCACCCAUGUUCUUUUAUACCCUCAGGUAGGUCGCCAUUGGGACA [Anenre] 33.6
